Test system: P12-Ichikawa
Assay: cell viability relative to DMSO control; higher = less cytotoxic
Conditions: RPMI 5 mM glucose + 10% FBS; 48 h; 0.00702 µM
Parameter cell viability: see the listing below.
Please reply with the bare figure in % and do not write the unit itself.

Here is how some molecules turned out for cell viability.
[[record]]
molecule = "N#C/C(=C1/Nc2ccccc2S1)c1ccnc(OCc2ccc(CN3CCOCC3)cc2)n1"
targetorsystem = "P12-Ichikawa"
resultunit = "%"
resultnumber = 116

[[record]]
molecule = "CN1CCN(CCCN2c3ccccc3Sc3ccc(Cl)cc32)CC1.O=C(O)/C=C\\C(=O)O.O=C(O)/C=C\\C(=O)O"
targetorsystem = "P12-Ichikawa"
resultunit = "%"
resultnumber = 125

[[record]]
molecule = "CCN(CC)CCCC(C)Nc1nc(C)cc(Nc2ccc3nc(C)cc(N)c3c2)n1 (centres undefined)"
targetorsystem = "P12-Ichikawa"
resultunit = "%"
resultnumber = 104

[[record]]
molecule = "CN(C(Cc1ccc(O[S+](=O)([O-])c2cccc3cnccc23)cc1)C(=O)N1CCN(c2ccccc2)CC1)[S+](=O)([O-])c1cccc2cnccc12 (centres undefined)"
targetorsystem = "P12-Ichikawa"
resultunit = "%"
resultnumber = 109

[[record]]
molecule = "COC(=O)Nc1nc2ccc([S+]([O-])c3ccccc3)cc2[nH]1 (centres undefined)"
targetorsystem = "P12-Ichikawa"
resultunit = "%"
resultnumber = 103

[[record]]
molecule = "COC(=O)[C@H](c1ccccc1Cl)N1CCc2sccc2C1"
targetorsystem = "P12-Ichikawa"
resultunit = "%"
resultnumber = 120

[[record]]
molecule = "C[C@H](Cc1ccc(O)c(O)c1)[C@@H](C)Cc1ccc(O)c(O)c1"
targetorsystem = "P12-Ichikawa"
resultunit = "%"
resultnumber = 123

[[record]]
molecule = "CN(C)CCc1c[nH]c2ccc(C[S+](=O)([O-])N3CCCC3)cc12"
targetorsystem = "P12-Ichikawa"
resultunit = "%"
resultnumber = 110

[[record]]
molecule = "CN(C)CCOc1ccc(/C(=C(/CCCl)c2ccccc2)c2ccccc2)cc1"
targetorsystem = "P12-Ichikawa"
resultunit = "%"
resultnumber = 112

[[record]]
molecule = "OCCN(CCO)c1nc(N2CCCCC2)c2nc(N(CCO)CCO)nc(N3CCCCC3)c2n1"
targetorsystem = "P12-Ichikawa"
resultunit = "%"
resultnumber = 113


Q) May I ask what cell viability has been recorded for "CO[C@@H]1[C@@H](O)[C@H](O)[C@@H](n2c3c(Cl)cccc3c3c4c(c5c6cccc(Cl)c6[nH]c5c32)C(=O)NC4=O)O[C@H]1CO" ?
A) 103

Q) Consider next the molecule "N=C(N)Nc1ccc(C(=O)Oc2ccc3cc(C(=N)N)ccc3c2)cc1" in the same way.
A) 99.4

Q) Please give the result for "CC(C)(Sc1ccc(CCN(CCCCC2CCCCC2)C(=O)NC2CCCCC2)cc1)C(=O)O" too.
A) 106

Q) Item: CCOCC(O)COc1ccc(NC(=O)CC[S+](C)C)cc1 (centres undefined)
A) 93

* * *

System: NOMO1
Experiment: cell viability relative to DMSO control; higher = less cytotoxic
Conditions: RPMI 5 mM glucose + 10% FBS; 48 h; 0.19 µM
cell viability: recorded values
Just the number please, in %, no unit attached.

Some entries whose results are on file:
[[record]]
molecule = "CC(C)c1c(C(=O)Nc2ccccc2)c(-c2ccccc2)c(-c2ccc(F)cc2)n1CC[C@@H](O)C[C@@H](O)CC(=O)[O-]"
targetorsystem = "NOMO1"
propertymeasured = "cell viability"
resultnumber = 116

[[record]]
molecule = "C[C@@H](N)C1CC[C@@H](CC1)C(=O)NC2=CC=NC=C2 (some centres undefined)"
targetorsystem = "NOMO1"
propertymeasured = "cell viability"
resultnumber = 120

[[record]]
molecule = "CO[C@@H]1[C@@H](O)[C@H](O)[C@@H](n2c3c(Cl)cccc3c3c4c(c5c6cccc(Cl)c6[nH]c5c32)C(=O)NC4=O)O[C@H]1CO"
targetorsystem = "NOMO1"
propertymeasured = "cell viability"
resultnumber = 86.4

[[record]]
molecule = "Nc1nc(N)c(N=O)c(OCC2CCCCC2)n1"
targetorsystem = "NOMO1"
propertymeasured = "cell viability"
resultnumber = 94

[[record]]
molecule = "CC(C)Cn1cnc2c(N)nc3ccccc3c21"
targetorsystem = "NOMO1"
propertymeasured = "cell viability"
resultnumber = 103


Q) Would you mind telling me what cell viability value was observed for "COc1cc2ncn(-c3cc(OCc4ccccc4C(F)(F)F)c(C(N)=O)s3)c2cc1OC" ?
A) 118

Q) Now give it for "Nc1ccn([C@H]2CS[C@@H](CO)O2)c(=O)n1" too.
A) 138

Q) Moving on to the next molecule: "O=C1CCCC(=O)C1C(=O)c1ccc(C(F)(F)F)cc1[N+](=O)[O-]"
A) 98.4

Q) Further, for "NNc1nncc2ccccc12" ?
A) 124

* * *

System: P12-Ichikawa
Experiment: cell viability relative to DMSO control; higher = less cytotoxic
Conditions: RPMI 5 mM glucose + 10% dialyzed FBS; 48 h; 5.12 µM
propertyMeasured: cell viability (%)
Record the value in %, omitting the unit from your answer.

Check out these entries, answers already filled in.
[[record]]
compound = "CC(C)(C)OC(=O)Nc1ccc(-c2cc(C(=O)NCCCCCCC(=O)NO)no2)cc1"
resultunit = "%"
resultnumber = 7.46

[[record]]
compound = "Oc1ccc([C@@H]2Oc3ccc(O)cc3[C@@H]3CCC[C@@H]32)cc1"
resultunit = "%"
resultnumber = 72.8

[[record]]
compound = "C[N+]1(C)[C@@H]2CC(OC(=O)C(O)(c3cccs3)c3cccs3)C[C@H]1[C@@H]1O[C@@H]12 (some centres undefined)"
resultunit = "%"
resultnumber = 111


Q) Query: cell viability; subject: "CCCCCN(CCC12CC3CC(CC(C3)C1)C2)C(=O)NCCCc1ccncc1"
A) 105

Q) Same read-out for "Oc1ccc(-c2ccc(-c3cc(Nc4cccc(CNC5CC5)c4)[nH]n3)cc2)c(O)c1" ?
A) 58.8

Q) Param item: "NCCc1ccc(O)c(O)c1"
A) 121

Q) Please answer likewise for "C[N]1C=C(C=N1)C2=CC=C3N=CC\4=C(N(C(=O)\C=C4)C5=CC6=C(CCN6C(=O)C=C)C=C5)C3=C2"
A) 82.2

Q) Now consider "CN(C)CCc1c[nH]c2ccc(C[S+](=O)([O-])N3CCCC3)cc12" .
A) 104

Q) What about this compound? CCC(C1CCC(C)C(O1)C(C)C(O)C(C)C(=O)C(CC)C2OC\3(O[C@]4(CC[C@@](C)(O4)C5CC[C@@](O)(CC)C(C)O5)C(O)\C=C3)C(C)CC2C)C([O-])=O (some centres undefined)
A) 55.7

* * *

System: P12-Ichikawa
Test: cell viability relative to DMSO control; higher = less cytotoxic
Conditions: RPMI 5 mM glucose + 10% FBS; 48 h; 5.12 µM
propertyMeasured: cell viability (%)
Write the number in % without appending the unit.

Q) Give its cell viability value. Item: "C1COC(NC(C2CC2)C2CC2)=N1"
A) 94.6

* * *

Tested on: P12-Ichikawa
Assay: cell viability relative to DMSO control; higher = less cytotoxic
Conditions: HPLM + 10% dialyzed FBS; 48 h; 0.00702 µM
Measured cell viability of individual entries
State the answer as a number, implicitly in %.

A selection of reference data follows.
[[record]]
molecule = "CCC(C1CCC(C)C(O1)C(C)C(O)C(C)C(=O)C(CC)C2OC\\3(O[C@]4(CC[C@@](C)(O4)C5CC[C@@](O)(CC)C(C)O5)C(O)\\C=C3)C(C)CC2C)C([O-])=O (stereo partly drawn)"
targetorsystem = "P12-Ichikawa"
propertymeasured = "cell viability"
resultnumber = 109

[[record]]
molecule = "CN(C)CCc1c[nH]c2ccc(C[S+](=O)([O-])N3CCCC3)cc12"
targetorsystem = "P12-Ichikawa"
propertymeasured = "cell viability"
resultnumber = 110

[[record]]
molecule = "CCOC(=O)[C@H]1O[C@@H]1C(=O)N[C@@H](CC(C)C)C(=O)NCCC(C)C"
targetorsystem = "P12-Ichikawa"
propertymeasured = "cell viability"
resultnumber = 121

[[record]]
molecule = "CC/1=C(\\CCN2CCC(CC2)C3=NOC4=C3C=CC(=C4)F)C(=O)N/5CCCCC5=N1"
targetorsystem = "P12-Ichikawa"
propertymeasured = "cell viability"
resultnumber = 122

[[record]]
molecule = "COC(=O)C/1=C(C)/N/C(=C(\\C1C2=CC(=CC=C2)[N+]([O-])=O)C(=O)OCCCN3CCC(CC3)(C4=CC=CC=C4)C5=CC=CC=C5)C (stereo not drawn)"
targetorsystem = "P12-Ichikawa"
propertymeasured = "cell viability"
resultnumber = 104

[[record]]
molecule = "NC[C@H]1O[C@H](O[C@H]2[C@H](O)[C@@H](O[C@H]3O[C@H](CO)[C@@H](O)[C@H](N)[C@H]3O)[C@H](N)C[C@@H]2N)[C@H](N)C[C@@H]1O"
targetorsystem = "P12-Ichikawa"
propertymeasured = "cell viability"
resultnumber = 110

[[record]]
molecule = "N#C/C(=C1/Nc2ccccc2S1)c1ccnc(OCc2ccc(CN3CCOCC3)cc2)n1"
targetorsystem = "P12-Ichikawa"
propertymeasured = "cell viability"
resultnumber = 110

[[record]]
molecule = "Cc1nc(N)ncc1-c1nc(N2CCOCC2)c2sc(C(C)(C)O)cc2n1"
targetorsystem = "P12-Ichikawa"
propertymeasured = "cell viability"
resultnumber = 119

[[record]]
molecule = "Cn1cnc([N+](=O)[O-])c1Sc1ncnc2nc[nH]c12"
targetorsystem = "P12-Ichikawa"
propertymeasured = "cell viability"
resultnumber = 98.4

[[record]]
molecule = "O=C(NCc1ccccc1)c1csc(Nc2ccncn2)n1"
targetorsystem = "P12-Ichikawa"
propertymeasured = "cell viability"
resultnumber = 100


Q) Given the molecule "Nc1nc(NCCNc2ncc(-n3ccnc3)c(-c3ccc(Cl)cc3Cl)n2)ccc1[N+](=O)[O-]" , what is its reported cell viability?
A) 125

Q) Now the same for "CC(C)Cn1cnc2c(N)nc3ccccc3c21"
A) 107
